Numbers sourced from ChEMBL document CHEMBL3217437.

target: Tumour suppressor p53/oncoprotein Mdm2 (Homo sapiens, UniProt P04637+Q00987); test: Inhibition of p53 interaction to MDM2 (unknown origin) by HTS assay; type: protein assay
Sequence (P04637 whole entry): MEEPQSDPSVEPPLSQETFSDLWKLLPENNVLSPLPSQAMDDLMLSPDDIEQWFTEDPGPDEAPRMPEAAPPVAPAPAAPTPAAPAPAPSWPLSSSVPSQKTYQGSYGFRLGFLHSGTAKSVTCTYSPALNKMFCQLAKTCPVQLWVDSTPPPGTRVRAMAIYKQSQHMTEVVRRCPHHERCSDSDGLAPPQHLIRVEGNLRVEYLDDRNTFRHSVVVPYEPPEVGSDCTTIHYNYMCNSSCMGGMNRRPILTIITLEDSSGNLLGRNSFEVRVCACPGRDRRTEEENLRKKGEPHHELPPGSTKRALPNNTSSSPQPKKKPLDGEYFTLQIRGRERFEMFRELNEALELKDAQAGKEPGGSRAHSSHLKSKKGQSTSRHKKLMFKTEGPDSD
Sequence (Q00987 whole entry): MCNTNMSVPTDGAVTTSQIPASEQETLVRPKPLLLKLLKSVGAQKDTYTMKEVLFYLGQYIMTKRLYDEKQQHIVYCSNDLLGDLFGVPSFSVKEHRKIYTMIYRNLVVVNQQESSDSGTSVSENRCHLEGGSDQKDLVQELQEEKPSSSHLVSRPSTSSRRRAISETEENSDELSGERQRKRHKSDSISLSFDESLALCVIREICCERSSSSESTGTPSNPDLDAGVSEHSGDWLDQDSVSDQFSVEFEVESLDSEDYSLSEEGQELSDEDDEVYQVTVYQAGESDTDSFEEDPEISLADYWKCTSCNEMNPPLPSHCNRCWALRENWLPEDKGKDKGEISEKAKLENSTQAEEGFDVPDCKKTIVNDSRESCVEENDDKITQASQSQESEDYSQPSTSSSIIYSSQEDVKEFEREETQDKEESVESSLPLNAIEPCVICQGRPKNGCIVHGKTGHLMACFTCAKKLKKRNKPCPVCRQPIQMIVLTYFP
observed property: Ki (nM)

A = Clc1ccc2c(-c3c(-c4ccc5c(c4)OCO5)ncn3CC3CC3)c[nH]c2c1
B = COC(=O)[C@]1(c2ccc(Cl)cc2)N=CN(CC2CC2)[C@H]1c1ccc(Cl)cc1
Query: Short answer wanted: higher Ki, A or B ? Please reply using the label of the selected record.
Reply: B

* * *

biological target: Tumour suppressor protein p53/Mdm4 (Homo sapiens, UniProt O15151); assay: Inhibition of p53 interaction to MDMX (unknown origin) by fluorescence polarization assay
Sequence (O15151 whole entry, one chain of several): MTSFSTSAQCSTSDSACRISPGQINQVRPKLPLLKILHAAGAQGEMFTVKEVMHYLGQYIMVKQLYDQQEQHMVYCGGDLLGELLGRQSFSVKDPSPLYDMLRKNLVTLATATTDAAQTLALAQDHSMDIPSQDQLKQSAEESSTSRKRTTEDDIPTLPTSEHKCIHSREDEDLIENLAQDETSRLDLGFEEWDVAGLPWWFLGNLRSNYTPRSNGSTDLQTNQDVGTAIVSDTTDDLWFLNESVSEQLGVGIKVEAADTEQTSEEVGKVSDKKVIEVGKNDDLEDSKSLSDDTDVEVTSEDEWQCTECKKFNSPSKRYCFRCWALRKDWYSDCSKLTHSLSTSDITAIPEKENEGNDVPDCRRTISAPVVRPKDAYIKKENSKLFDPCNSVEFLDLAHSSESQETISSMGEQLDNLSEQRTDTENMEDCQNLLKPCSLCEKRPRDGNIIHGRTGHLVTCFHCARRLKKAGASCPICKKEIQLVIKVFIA
observed property: Ki (µM)
Report only the number, with the unit µM understood.

Query: I am curious: what Ki value has been reported for CC(C)(C)C[C@H]1N[C@@H](C(=O)NCCN2CCOCC2)[C@H](c2cccc(Cl)c2F)[C@@]12C(=O)Nc1cc(Cl)ccc12 ?
Reply: 55
